- Experimental system: Grb2 SH2 (UniProt P62993)
- Sequence (P62993 whole entry, looked up, the tested form may be a part): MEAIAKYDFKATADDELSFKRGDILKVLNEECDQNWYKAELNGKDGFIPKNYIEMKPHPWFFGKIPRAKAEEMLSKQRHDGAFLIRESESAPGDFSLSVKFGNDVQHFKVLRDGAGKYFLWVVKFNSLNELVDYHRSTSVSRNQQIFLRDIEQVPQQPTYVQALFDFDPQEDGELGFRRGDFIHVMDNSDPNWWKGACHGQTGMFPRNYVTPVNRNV
- Assay procedure: SH2 binding enrichment of the phosphorylated peptide, bacterial display (enrichment ratio); higher = better substrate or ligand; peptides without Tyr show the background;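 also: peptide library displayed on the E. coli surface as eCPX fusions, selected cells deep-sequenced, score is each peptide's frequency after selection divided by its frequency in the input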
Output schema: class label derived from SH2 binding enrichment. Mapping: 1 = under 0.8, 2 = from 0.8 up to 1, 3 = 1 and over

Primary sequence | Classification
LQFKNYQQLFD [MAN2A1_Y442] | 1

Inquiry: # classify by SH2 binding enrichment band: PLDGEYFTHQI [TP53_Y327_L330H]
Reply text: 3

Inquiry: # classify by SH2 binding enrichment band: MPAVTYTLAMR [MEGF10_Y895_P897L]
Reply text: 1

Inquiry: # classify by SH2 binding enrichment band: LTDLRYKVSGL
Reply text: 1

Inquiry: # classify by SH2 binding enrichment band: NFATLHLKIYH [PDE6B_Y219_Y219H]
Reply text: 2

Inquiry: # classify by SH2 binding enrichment band: TTEHIYGDKFF [UBA7_Y524_N527K]
Reply text: 1

Inquiry: # classify by SH2 binding enrichment band: ICTVDYLLRLQ [RYR1_Y3921]
Reply text: 2
